Test system: Plasmodium falciparum
methodNotes: Antimalarial activity against chloroquine-resistant Plasmodium falciparum W2 infected human erythrocytes after 24 hrs by [3H]hypoxanthine uptake
Format: functional
conditionsUsed: read-out: ED50 (the source's name)
measurementType: log10(EC50) (log10 of the value in µg/mL)
On a log10 scale: recorded EC50, unit µg/mL.

Q. Need log10(EC50) of COc1cc2c(cc1O)CCN(C)[C@H]2Cc1ccc(Oc2c(O)c(OC)cc3c2C[C@H]2c4c(c(OC)c(OC)c(OC)c4-3)CCN2C)cc1 [THALIFABERIDINE] , thanks.
A. -0.91

Q. Need log10(EC50) of COc1cc2c(cc1OC)[C@H](Cc1ccc(Oc3c4c(cc(OC)c3OC)-c3c(OC)c(OC)c(OC)c5c3[C@H](C4)N(C)CC5)cc1)N(C)CC2 [THALIFABERINE] , thanks.
A. -0.36

Q. Need log10(EC50) of OC(c1cc(C(F)(F)F)nc2c(C(F)(F)F)cccc12)C1CCCCN1 (stereo unspecified) [MEFLOQUINE] , thanks.
A. -2.72

Q. Need log10(EC50) of COc1cc2c(c(O)c1OC)CCN(C)[C@H]2Cc1ccc(Oc2c3c(cc(OC)c2OC)-c2c(OC)c(OC)c(O)c4c2[C@H](C3)N(C)CC4)cc1 [THALIFASINE] , thanks.
A. -1.31

Q. Need log10(EC50) of C[C@@H]1CC[C@H]2[C@@H](C)C(=O)O[C@@H]3O[C@@]4(C)CC[C@@H]1[C@]32OO4 [ARTEMISININ] , thanks.
A. -3.40

Q. Need log10(EC50) of C=C[C@H]1CN2CC[C@H]1C[C@H]2[C@H](O)c1ccnc2ccc(OC)cc12 [QUININE] , thanks.
A. -1.23

---

methodNotes: Selectivity index, ratio of ED50 for human KB cells to ED50 for chloroquine-sensitive Plasmodium falciparum D6
Format: toxicity, cell-based
conditionsUsed: read-out: Selectivity Index
For each entry below, report its selectivity ratio value.

Q. Need selectivity ratio of C[C@@H]1CC[C@H]2[C@@H](C)C(=O)O[C@@H]3O[C@@]4(C)CC[C@@H]1[C@]32OO4 , thanks.
A. > 1820

Q. Need selectivity ratio of C=C[C@H]1CN2CC[C@H]1C[C@H]2[C@H](O)c1ccnc2ccc(OC)cc12 , thanks.
A. > 960

Q. Need selectivity ratio of COc1cc2c(cc1OC)[C@H](Cc1ccc(Oc3c4c(cc(OC)c3OC)-c3c(OC)c(OC)c(OC)c5c3[C@H](C4)N(C)CC5)cc1)N(C)CC2 , thanks.
A. 3
